Measured viability, T/C, listed per entry.
Tested on: 966289-007-R4-J1-PDC complex spheroid viability
procedure-text: Anticancer human tumor 966289-007-R4-J1-PDC patient-derived pancreatic adenocarcinoma cell line growth inhibition [GQUAD]
experimental-context: second compound 10 µM; first compound 0.1 µM; active compounds read low
Supply the numeric figure in %, leaving out any unit text.

Example entries begin here.
compound: COc1ncnc(C2CC2)c1-c1ncc2cnn(Cc3ccc(-c4nc(C(F)(F)F)cn4C(C)C)cc3)c2n1 + Cc1[nH]c2ccc(F)cc2c1-c1nc2c3cccnc3c3ncccc3c2[nH]1
value-reported: 104

compound: CCCS(=O)(=O)Nc1ccc(F)c(C(=O)c2c[nH]c3ncc(-c4ccc(Cl)cc4)cc23)c1F + CN(C)c1ccc(Nc2c3ccc(NC(=O)CCN4CCCC4)cc3nc3cc(NC(=O)CCN4CCCC4)ccc23)cc1
value-reported: 102

[Q] May I ask what viability, T/C has been recorded for COc1cccc2c1C(=O)c1c(O)c3c(c(O)c1C2=O)CC(O)(C(=O)CO)CC3OC1CC(N)C(O)C(C)O1 (stereo not drawn) + Cc1[nH]c2ccc(F)cc2c1-c1nc2c3cccnc3c3ncccc3c2[nH]1 ?
[A] 10.9

###

Tested on: 966289-007-R4-J1-PDC complex spheroid viability
procedure-text: Anticancer human tumor 966289-007-R4-J1-PDC cell line growth inhibition [GQUAD];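 also: spheroids exposed to the agents for seven days before readout; percent viability relative to DMSO vehicle control wells taken as 100%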
experimental-context: second compound 0.0316 µM; first compound 0.0316 µM; active compounds read low
result-type: viability, T/C (%)
Field: numeric (%). Do not append units.

Guide cases for viability, T/C, answers given:
compound: O=C(c1cc(Cc2n[nH]c(=O)c3ccccc23)ccc1F)N1CCN(C(=O)C2CC2)CC1 + Cc1[nH]c2ccc(F)cc2c1-c1nc2c3cccnc3c3ncccc3c2[nH]1
value-reported: 113

compound: CC1COCCN1c1cc(C2(O)CC3CCC(C2)O3)c2cnn(-c3ccn[nH]3)c2n1 (stereo not drawn) + Cc1[nH]c2ccc(F)cc2c1-c1nc2c3cccnc3c3ncccc3c2[nH]1
value-reported: 112

[Q] Param item = Cn1ncnc1[C@H]1c2n[nH]c(=O)c3cc(F)cc(c23)N[C@@H]1c1ccc(F)cc1 + Cc1[nH]c2ccc(F)cc2c1-c1nc2c3cccnc3c3ncccc3c2[nH]1 ; retrieve measured viability, T/C.
[A] 96.8

###

Tested on: 966289-007-R4-J1-PDC complex spheroid viability
procedure-text: Anticancer human tumor 966289-007-R4-J1-PDC cell line growth inhibition [GQUAD]; active = viability on the fitted dose curve at most 10% of control; inactive = the rest;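 also: spheroids exposed to the agents for seven days before readout; percent viability relative to DMSO vehicle control wells taken as 100%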
experimental-context: second compound 1 µM; first compound 0.1 µM
A correct response names exactly one class from active, inactive

compound: CC(C)(O)C1CCC(Nc2ccc3ncc(-c4cccc(C(F)(F)F)c4)n3n2)CC1 (stereo not given) + CN(C)c1ccc(Nc2c3ccc(NC(=O)CCN4CCCC4)cc3nc3cc(NC(=O)CCN4CCCC4)ccc23)cc1
label: inactive

compound: CC1COCCN1c1cc(-c2ccnn2C)c2ccnc(-c3ccn[nH]3)c2n1 (stereo not given) + Cc1[nH]c2ccc(F)cc2c1-c1nc2c3cccnc3c3ncccc3c2[nH]1
label: inactive

compound: C=CCn1c(=O)c2cnc(Nc3ccc(N4CCN(C)CC4)cc3)nc2n1-c1cccc(C(C)(C)O)n1 + CN(C)c1ccc(Nc2c3ccc(NC(=O)CCN4CCCC4)cc3nc3cc(NC(=O)CCN4CCCC4)ccc23)cc1
label: inactive

compound: C=CC(=O)N1CCN(c2nc(=O)n(-c3c(C)ccnc3C(C)C)c3nc(-c4c(O)cccc4F)c(F)cc23)C(C)C1 (stereo not given) + CN(C)c1ccc(Nc2c3ccc(NC(=O)CCN4CCCC4)cc3nc3cc(NC(=O)CCN4CCCC4)ccc23)cc1
label: inactive

Note: attention shifts to another entry.
[Q] // return assay outcome for CC1COCCN1c1cc(-c2ccnn2C)c2ccnc(-c3ccn[nH]3)c2n1 (stereo not given) + Cc1cnc(CNC(=O)c2c(=O)c3ccc(N4CCCN(C)CC4)nc3n3c2sc2ccccc23)cn1
[A] active

The measured values listed here are drawn from PubChem BioAssay AID2060488.
